Recorded kon by entry
Biological target: T1, human galectin-10-His (human)
T1 construct: The last M of the tag may be Met1 of galectin-10; also called humanGal10-His; hGal10
T1 chain: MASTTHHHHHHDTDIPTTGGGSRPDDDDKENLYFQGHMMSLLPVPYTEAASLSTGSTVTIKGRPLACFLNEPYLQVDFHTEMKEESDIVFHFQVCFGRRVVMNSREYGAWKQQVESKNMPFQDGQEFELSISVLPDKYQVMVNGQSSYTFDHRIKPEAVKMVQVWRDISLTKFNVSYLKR
Assay: SPR Biacore T3000, mouse IgG1 captured
Give just the numeric value; M⁻¹ s⁻¹ need not be written.

Before answering, review these 2 worked examples.
11F02 mouse IgG1 (antibody, V domains shown, VH and VL cloned in frame with mouse IgG1 constant domains; also called 11F02 mIgG1) VH: ELQVVESGGGLVQPGGSLRLSCAASGFTFSTNYMNWVRQAPGKGLEWVSGITSHGARTYYADSVKGRFTISRDNSKNTLYLQMNSLKPEDTALYYCARTDHASLDAWGQGTLVTVSS VL: QTVVTQEPSLSVSPGGTVTLTCGLSSGSVTSSNYPGWYQQKPGQAPRTLIYNTNSRYSGVPNRFSGSISGNKAALTITGAQPEDEADYYCALYMGSSSYNTVFGGGTHLTVL :: 2.27e+06
10A06 mouse IgG1 (antibody, V domains shown, VH and VL cloned in frame with mouse IgG1 constant domains; also called 10A06 mIgG1) VH: QVQLVESGGGLVQPGGSLRLSCAASGFTFGNYDMSWVRQAPGKGPEWVSDINSGGGSTYYADSVKGRFTISRDNAKNSLLLQMNSLKPEDTAVYYCATGYTGYYYWGQGTQVTVSS VL: QTVVTQEPSLSVSPGGTVTLTCGLSSGSVTSSNYPAWYQQTPGQAPRALIYSINSRHSGVPDRFSGSISGNKAALTITGAQAEDEADYYCTLYMGTGSNNVVFGGGTHLTVL :: 1.17e+07

Which kon is listed for 10D02 mouse IgG1 (antibody, V domains shown, VH and VL cloned in frame with mouse IgG1 constant domains; also called 10D02 mIgG1) VH: EVQLVESGGGLVQPGGSLRVSCAASGFTFSSYYMSWVRQAPGKGLEWVSGIVTGGGRTHYTDSVKGRFTITRDNAKNTLYLQMNSLRPEDTALYYCARVNGVVTNYDYWGQGTQVTVSS VL: QAVLTQPPSVSGSPGKTVTISCAGTSSDVGYGNYVSWYQQLPGMAPKLLIYDVNKRASGITDRFSGSKSGNTASLTISGLQSEDEADYFCASYRSPNNVVFGQGTHLTVL ?
547000
